# ASSAYED_TARGET: IKKε (Homo sapiens)
# Construct: His-tag (in-house Sf9 preparation) or GST-tag (purchased Invitrogen preparation); these are alternatives, not both on one protein; host or cells: Sf9 cells
# Sequence (Q14164 whole entry): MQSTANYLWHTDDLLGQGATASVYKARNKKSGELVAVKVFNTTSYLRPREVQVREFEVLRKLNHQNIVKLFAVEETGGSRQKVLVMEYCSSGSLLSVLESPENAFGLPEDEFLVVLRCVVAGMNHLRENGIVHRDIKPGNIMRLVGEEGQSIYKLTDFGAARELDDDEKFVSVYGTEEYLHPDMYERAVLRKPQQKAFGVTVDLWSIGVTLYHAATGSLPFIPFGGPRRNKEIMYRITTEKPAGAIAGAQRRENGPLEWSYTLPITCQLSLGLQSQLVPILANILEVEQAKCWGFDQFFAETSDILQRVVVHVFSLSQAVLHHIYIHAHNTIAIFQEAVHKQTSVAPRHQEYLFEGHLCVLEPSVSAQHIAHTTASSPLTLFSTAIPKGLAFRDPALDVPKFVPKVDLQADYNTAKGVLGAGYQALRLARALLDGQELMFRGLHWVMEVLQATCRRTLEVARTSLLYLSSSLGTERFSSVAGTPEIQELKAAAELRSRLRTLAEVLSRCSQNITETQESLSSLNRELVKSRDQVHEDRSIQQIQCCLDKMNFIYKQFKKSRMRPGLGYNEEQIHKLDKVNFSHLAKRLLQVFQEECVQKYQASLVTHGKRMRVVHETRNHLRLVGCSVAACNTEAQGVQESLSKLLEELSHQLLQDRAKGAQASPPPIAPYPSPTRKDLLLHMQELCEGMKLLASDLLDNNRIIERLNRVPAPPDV
# MEASUREMENT_DESCRIPTION: In-vitro IKKε kinase assay (radiolabelled ATP, filterplate)
# Type: biochemical
# CONDITION_SUMMARY: Table 3, in vitro; read-out: IKKε IC50
READOUT_TYPE: IC50 (nM)

In [3]: df
Out[3]:
                      smiles_representation  reported_measurement
0  COCCOC1CN(Cc2ccc(Nc3nccc(-c4ccc(OC5CCOCC5)c(C#N)c4)n3)cn2)C1                  6.11

P. N#Cc1cc(-c2ccnc(Nc3ccc(N4CCOCC4)nc3)n2)ccc1NC(=O)C1CC1
Q. COC1CN(Cc2ccc(Nc3nccc(-c4ccc(OC5CCOCC5)c(C#N)c4)n3)cn2)C1
R. N#Cc1cc(-c2ccnc(Nc3ccc(CN4CCC4)nc3)n2)ccc1OC1CCOCC1
*Q* Reorder the items by IC50, least to greatest. Please list each label once, in the requested order.
*A* P, Q, R

====

# ASSAYED_TARGET: IKKε (Homo sapiens)
# Construct: His-tag (in-house Sf9 preparation) or GST-tag (purchased Invitrogen preparation); these are alternatives, not both on one protein; host or cells: Sf9 cells
# MEASUREMENT_DESCRIPTION: In-vitro IKKε kinase assay (radiolabelled ATP, filterplate)
# Format: biochemical
# CONDITION_SUMMARY: "sensitized" assay; read-out: IC50, inhibition of the kinase activity of IKKε
# Method: IKKε enzyme was produced as a His-tag fusion in Sf9 cells or purchased as a GST-tag fusion (Invitrogen, Carlsbad, Calif.). TBK1 enzyme was produced as a His-tag fusion in Sf9 cells. […] After air drying, scintillant (PerkinElmer, Waltham, Mass.) was added and the plates were read on a PerkinElmer TopCount NXT instrument. […]
READOUT_TYPE: IC50

# count of solved cases: 6
In [3]: df
Out[3]:
                                   compound  readout_type  reported_measurement
0  CN(Cc1ccc(Nc2nccc(-c3ccc(OC4CCOCC4)c(C#N)c3)n2)cn1)C(=O)C(C)(C)O [Example Compound 205]          IC50                < 5 nM
1  N#Cc1cc(-c2ccnc(Nc3ccnc(N4CC(O)C4)c3)n2)ccc1OC1CCOCC1 [Example Compound 41]          IC50                < 5 nM
2  COc1cc(Nc2nccc(-c3ccc(OC4CCN(C(=O)CO)CC4)c(C#N)c3)n2)ccn1 [Example Compound 222]          IC50                < 5 nM
3  COc1cc(Nc2nccc(-c3ccc(O[C@@H]4CCN(C(=O)CO)C4)c(C#N)c3)n2)ccn1 [Example Compound 225]          IC50                < 5 nM
4  CN(Cc1ccc(Nc2nccc(-c3ccc(OC4CCOCC4)c(C#N)c3)n2)cn1)S(C)(=O)=O [Example Compound 206]          IC50                < 5 nM
5  CCOc1ccc(Nc2nccc(-c3ccc(OC4CCOCC4)c(C#N)c3)n2)cn1 [Example Compound 8]          IC50                < 5 nM

Lab note: next compound to report on.
*Q* Given N#Cc1cc(-c2ccnc(Nc3ccc(CNC(=O)N4CCOCC4)nc3)n2)ccc1OC1CCOCC1 [Example Compound 229] , state its recorded IC50.
*A* < 5 nM

Just for reference, patent US20140288044A1 is where these values come from.
